// provenance: PubChem BioAssay (NCI)

Test system: MDA-MB-231 breast
Experiment: NCI tumour cell line growth inhibition, 48 h
recordedMetric: TGI

// worked examples, TGI included
{"molecule": "CC(=O)C(=Cc1ccc(C=C(C(C)=O)C(C)=O)cc1)C(C)=O", "targetOrSystem": "MDA-MB-231 breast", "TGI": "4.4 µM"}
{"molecule": "CNc1ccc2c(c1)[C@@]1(C)c3ccccc3[C@@H](C2)N1C", "targetOrSystem": "MDA-MB-231 breast", "TGI": "62.6 µM"}
{"molecule": "O=c1c2nc3ccccc3c(=O)n2ncn1-c1ccccc1Cl", "targetOrSystem": "MDA-MB-231 breast", "TGI": "> 100 µM"}
{"molecule": "Cc1ccc(NC2=CC(=O)C(NO)c3ccccc32)cc1 (configuration not stated)", "targetOrSystem": "MDA-MB-231 breast", "TGI": "7.12 µM"}
{"molecule": "Nc1cccc(/C=C/C(=O)N2CCN(CCOC(c3ccccc3)c3ccccc3)CC2)c1", "targetOrSystem": "MDA-MB-231 breast", "TGI": "29.1 µM"}

Challenge: // lookup TGI for COc1ccc(C(=O)c2sc(Nc3ccc(Cl)cc3)nc2N)cc1
Response given: > 92.4 µM
